Cited source: ChEMBL document CHEMBL4483862

test system: Plasmodium berghei; test: Luciferase/luciferin-expressing antifolate-resistant parasites were used to infect a culture of HepG2 cells that were pre-incubated with compounds. Infected hepatocytes emit light due to the luciferase reaction. Assay results are presented as the percent inhibition of light emission compared to control. […]; type: functional; details: sporozoite, read-out: LUCIFERASE INFECTION ASSAY - IC50
Here the recorded IC50 is given for each entry.

structure=COc1ccc(-c2cnc3cnc(-c4ccc5c(c4)OCO5)cn23)cc1 result="1.78 µM"
structure=O=c1c(Cl)c2[nH]c3ccccc3nc-2c2ccccc12 result="> 11.8 µM"
structure=N#Cc1cccc(NC(=O)c2cc(-c3cccnc3)nc3c2cnn3Cc2ccccc2Cl)c1 result="> 10 µM"

Attention now turns to another entry.
[in] Given the compound `O=C(CN1C(=O)C(=O)N(C2CCCC2)C1=O)Nc1cc(Cl)ccc1[N+](=O)[O-]` , what is its reported IC50?
[out] > 10 µM
